experimental-system: T1, human EGFRvIII-hFc protein (human, UniProt P00533 25-645)
T1 construct: extracellular domain; made in HEK293 cells, purified on protein A; also called immunogen A; hFc-tagged EGFRvIII protein; not shown: human IgG Fc fragment (hFc) of the pCpC vector
test: ELISA, coated EGFRvIII-hFc, antibody 100 nM
outcome-measure: OD450 nm
// return just the number, without any unit appended

Prompt line: Please report the measured OD450 nm for Murine anti-49G12 (antibody, V domains shown, murine hybridoma antibody; also called 49G12G5) VH: EVQLLQSGAELVKPGASVKLSCTASGFNIKDYYMHWVKQRTEQGLEWIGRIDPEDGETKYAPKFQGKATMTADTSSNTAYLQLSSLTSEDTAVYYCASSAYYGRNYWGQGTTLTVSS VL: QIVLTQSPAIMSASPGEKVTLTCSASSSLSSSYLYWYQQKPGSSPKLWIYSTSNLASGVPARFSGSGSGTSYSLTISSMEAEDAASYFCHQWSSYPYTFGGGTKLEIK
Response line: 3.79

Prompt line: Please report the measured OD450 nm for Murine anti-43H6 (antibody, V domains shown, murine hybridoma antibody; also called 43H6A1) VH: INAEYAGGPGLVKPSQSLSLTCTVTDYSITSDYAWNWIRQFPGNKLEWMGYISYSGNTNYNPSLKSRISITRDTSKNQFFLQLNSVTTEDTATYYCARLGRGFAYWGQGTLVTVSA VL: DILMTQSPSSMSVSLGDTVSITCHASQDINSNIGWLQQKPGTSFKGLIYHGRNLEDGVPSRFSGSGSGEDYSLTISSLESEDFADYYCVQYAHFPPTFGAGTKLELK
Response line: 3.85

Prompt line: Please report the measured OD450 nm for Murine anti-59G3 (antibody, V domains shown, murine hybridoma antibody; also called 59G3F12) VH: DVQLQESGPGLVKPSQSLSLTCSVTGYSITSGYYWHWIRQFPENKLEWMGYISYDGSNIYNPSLKNRISITRDTSKNQFFLKLNSVTTEDTATYYCAINSDYALDYWGQGTSVTVSS VL: QIVLTQSPAIMSASPGEKVTMTCSASSSVSYMYWYQQKPGSSPRLLIYDTSNLASGVPVRFSGSGSGTSYSLTISRMEAEDAATYYCQQWSSYSLTFGAGTKLELK
Response line: 3.71
